Dear all, I have gathered published IC50 values for Substance-K receptor (Homo sapiens, UniProt P21452); the list follows.

Below, 6 molecules whose answers are already recorded.
[
  {
    "Molecule": "CCNC(=O)N[C@@H]1CCCC[C@@H]1C(=O)N1CC[C@@H]2[C@H](c3ncc[nH]3)Nc3ccccc3[C@@H]21",
    "Experimental Readout": "IC50",
    "Experimental Result": "< 10 nM"
  },
  {
    "Molecule": "CC(=O)N1CCC(C(=O)N2CC[C@@H](N(C)C(=O)N(C)c3cc(C(F)(F)F)cc(C(F)(F)F)c3)[C@H](c3ccc(F)cc3)C2)CC1 (relative stereo)",
    "Experimental Readout": "IC50",
    "Experimental Result": "4200 nM"
  },
  {
    "Molecule": "Cc1ccc(C(=O)N[C@@H]2CCCC[C@@H]2C(=O)N2CC[C@@H]3[C@H](c4ccccc4)Nc4ccccc4[C@@H]32)cc1",
    "Experimental Readout": "IC50",
    "Experimental Result": "< 10 nM"
  },
  {
    "Molecule": "Cc1occc1[C@@H]1Nc2ccccc2[C@H]2[C@@H]1CCN2C(=O)[C@H]1CCCC[C@H]1NC(=O)c1ccccc1",
    "Experimental Readout": "IC50",
    "Experimental Result": "< 10 nM"
  },
  {
    "Molecule": "O=C(NCc1ccc(F)cc1)N[C@@H]1CCCC[C@@H]1C(=O)N1CC[C@@H]2[C@H](c3ccccc3)Nc3ccccc3[C@@H]21",
    "Experimental Readout": "IC50",
    "Experimental Result": "< 10 nM"
  },
  {
    "Molecule": "COc1ccc(NC(=O)N[C@@H]2CCCC[C@@H]2C(=O)N2CC[C@@H]3[C@H](C4CC4)Nc4ccccc4[C@@H]32)cc1",
    "Experimental Readout": "IC50",
    "Experimental Result": "< 1 nM"
  }
]

Item O=C(N[C@@H]1CCCC[C@@H]1C(=O)N1CC[C@@H]2[C@H](c3ncc[nH]3)Nc3ccccc3[C@@H]21)c1ccc(F)c(Cl)c1 has what recorded IC50?
< 1 nM

Please answer likewise for CC(=O)N(Cc1ccccc1)CC(Cc1c[nH]c2ccc(F)cc12)NC(=O)CN1CCC(N2CCCCC2)CC1 (centres unmarked)
2700 nM

Please answer likewise for COc1ccccc1CN(CC(NC(=O)CN1CCN(c2ccccc2)CC1)c1ccccc1)C(C)=O (centres unmarked)
2500 nM

Please answer likewise for O=C(NCC(F)(F)F)N[C@@H]1CCCC[C@@H]1C(=O)N1CC[C@@H]2[C@H](c3ccccc3)Nc3ccccc3[C@@H]21
< 10 nM

###

pIC50: −log10 of the molar value.
Dear all, I have gathered published pIC50 values for Substance-K receptor (Homo sapiens, UniProt P21452); the list follows.

Below, 4 compounds whose answers are already recorded.
[
  {
    "Compound": "COc1ccccc1CNC(=O)C(Cc1c[nH]c2ccccc12)NC(=O)CN1CCN(c2ccccc2)CC1 (centres unmarked)",
    "Experimental Target": "Substance-K receptor (Homo sapiens, UniProt P21452)",
    "Experimental Result": 6.19
  },
  {
    "Compound": "O=C(N[C@@H]1CCCC[C@@H]1C(=O)N1CC[C@@H]2[C@H](c3cncs3)Nc3ccccc3[C@@H]21)c1ccccc1",
    "Experimental Target": "Substance-K receptor (Homo sapiens, UniProt P21452)",
    "Experimental Result": "> 8.00"
  },
  {
    "Compound": "COC[C@@H]1Nc2ccccc2[C@H]2[C@@H]1CCN2C(=O)[C@H]1CCCC[C@H]1NC(=O)c1ccc(-n2ccnc2C)nc1",
    "Experimental Target": "Substance-K receptor (Homo sapiens, UniProt P21452)",
    "Experimental Result": "> 8.00"
  },
  {
    "Compound": "O=C(N[C@@H]1CCCC[C@@H]1C(=O)N1CC[C@@H]2[C@H](c3ccccc3)Nc3ccccc3[C@@H]21)N1CCC(c2ccccc2)CC1",
    "Experimental Target": "Substance-K receptor (Homo sapiens, UniProt P21452)",
    "Experimental Result": "> 8.00"
  }
]

Item CC(=O)N1CCC(C(=O)N2CC[C@@H](N(C)C(=O)N(C)c3cc(C(F)(F)F)cc(C(F)(F)F)c3)[C@H](c3ccc(Cl)c(Cl)c3)C2)CC1 has what recorded pIC50?
8.15

Please answer likewise for O=C(N[C@@H]1CCCC[C@@H]1C(=O)N1CC[C@@H]2[C@H](c3ccccc3)Nc3ccccc3[C@@H]21)c1ccc(CO)cc1
> 8.00

Please answer likewise for N#Cc1ccc(NC(=O)N[C@@H]2CCCC[C@@H]2C(=O)N2CC[C@@H]3[C@H](c4ncc[nH]4)Nc4ccccc4[C@@H]32)cc1
> 9.00
